All figures here come from patent US7683211B2.

- Tested on: Molt-4 lymphoblastic leukemia cells
- testProtocol: CellTiter 96 MTS cytotoxicity assay, Molt-4 leukemia cells
- Type: cell-based, human
- assayContext: Homo sapiens, 24 h; Molt-4 at 2.5×10^4/ml, one day incubation, MTS readout (Example 5); read-out: IC50 (cytotoxicity), Molt-4
experimentalReadout: pIC50
Scale explanation: pIC50 corresponds to minus log10 of a concentration expressed in moles per litre.

Fill in: pIC50 on Molt-4 lymphoblastic leukemia cells, entry CCC(Br)C(Br)C[C@@]1(Br)C(=O)[C@@H](Br)CC1CC(=O)OC (stereo partly shown) [MJTB, methyl jasmonate tetra-bromide]
5.10

----------
- Tested on: B16 melanoma cells
- testProtocol: CellTiter 96 MTS cytotoxicity assay, B16 melanoma cells
- Assay type: cell-based
- assayContext: 24 h; B16 at 2×10^3/ml, one day incubation, MTS readout
experimentalReadout: pIC50
The quantity pIC50 is defined as the negative base-10 logarithm of the molar concentration.

Report pIC50 on B16 melanoma cells for this entry: CCC(Br)C(Br)C[C@@]1(Br)C(=O)[C@@H](Br)CC1CC(=O)OC (stereo partly shown) [MJTB, methyl jasmonate tetra-bromide]
4.10
